Parameter: IC50. Scope: all listed entries.
# Test system: Ba/F3_Del19/T790M/C797S cells
# method.summary: Ba/F3_Del19/T790M/C797S cell proliferation inhibition assay (CellTiter-Glo)
# Format: cell-based
# run.parameters: Mus musculus, BaF3, 72 h, read-out: Ba/F3 (Del19/T790M/C797S) IC50(nM)

// below: answered compounds
COc1cc2c(cc1Nc1ncc(Br)c(Nc3ccccc3P(C)(C)=S)n1)-c1cnn(C)c1CCN2C1CCN(C(C)C)CC1 [Compound 105] : < 10 nM
COc1cc2c(cc1Nc1ncc(Br)c(Nc3ccc4nccnc4c3P(C)(C)=S)n1)-c1cnn(C)c1CCN2C1CC2(C1)CN(C)C2 [Compound 93] : < 10 nM
COc1cc2c(cc1Nc1ncc(Br)c(Nc3ccccc3N(C(C)C)S(C)(=O)=O)n1)-c1cnn(C)c1CCN2 [Compound 122] : 10 to 50 nM
COc1cc2c(cc1Nc1ncc(Br)c(Nc3ccc4nccnc4c3N(C(C)C)S(C)(=O)=O)n1)-c1cnn(C)c1CCN2 [Compound 123] : < 10 nM
COc1cc2c(cc1Nc1ncc(Br)c(Nc3ccc4nccnc4c3C(=O)N(C)C)n1)-c1cnn(C)c1CCN2C(C)C [Compound 109] : 10 to 50 nM

(Q) Please indicate IC50 recorded for COc1cc2c(cc1Nc1ncc(Br)c(Nc3ccccc3P(C)(C)=S)n1)-c1cnn(C)c1CCN2C1CCN(C)CC1 [Compound 101]
(A) < 10 nM

(Q) Please indicate IC50 recorded for COc1cc2c(cc1Nc1ncc(Br)c(Nc3ccccc3P(C)(C)=O)n1)-c1cn(CCN(C)C)nc1CCN2C(C)C [Compound 56]
(A) < 10 nM

(Q) Please indicate IC50 recorded for CCN(c1c(Nc2nc(Nc3cc4c(cc3OC)N(C(C)C)CCc3c-4cnn3C)ncc2Br)ccc2nccnc12)S(C)(=O)=O [Compound 134]
(A) < 10 nM

(Q) Please indicate IC50 recorded for COc1cc2c(cc1Nc1ncc(Br)c(Nc3ccc4nccnc4c3NS(C)(=O)=O)n1)-c1cnn(C)c1CCN2C1CCC1 [Compound 135]
(A) < 10 nM

(Q) Please indicate IC50 recorded for COc1cc2c(cc1Nc1ncc(Br)c(Nc3ccc4nccnc4c3P(C)(C)=O)n1)-c1cnn(C)c1CN(C(C)C)C2 [Compound 72]
(A) < 10 nM

(Q) Please indicate IC50 recorded for COc1cc2c(cc1Nc1ncc(Br)c(Nc3ccccc3P(C)(C)=O)n1)-c1cnn(C)c1CCN2 [Compound 28]
(A) < 10 nM
